- assay_text: soluble fraction after stress (log2 fold change); higher = more stays soluble; pooled small domains, quantitative proteomics
- experimental_conditions: stress: pH 4
experimental_endpoint: soluble fraction (log2)
Give bare numbers.

>  <seq_text>
HMKTEVNITPGIIDWIERYVQTDKISSSMTEDFQHWKSGTKKPTFNQVEAFSKAINVPLGYFFLKTPPAE

>  <recorded_measurement>
-0.902

$$$$
>  <seq_text>
HMSLLQDRQRHEALAALGYYRGSVSAAWGAASVEALKAAQAALGVEVDGKWGPKTEDVIQAALGT

>  <recorded_measurement>
-0.453

$$$$
>  <seq_text>
HMIINLGELLKMLEVNKYQDAMDALDSLIEEGGSLEKIESLHEIRQHTHAMNFREAERLLSILIESEGA

>  <recorded_measurement>
-1.41

$$$$

Read the next record carefully.
For HMEGMSIYVTVNGDMVHLTGKMSYVFVDVFEHIDFDLSKPQGSGIVTKLNGRDAQYMEEIRSGDMIEIYWR , what is its reported soluble fraction (log2)?
-0.669

----------
For each entry below, report its soluble fraction (log2) value.
- assay_text: soluble fraction after stress (log2 fold change); higher = more stays soluble; pooled small domains, quantitative proteomics
- experimental_conditions: stress: pH 4

# annotated cases, reported soluble fraction (log2) shown
>  <seq_text>
HMEHPNNTELTQKLELGTELMQYGDYNYALKVFNNVIDSDPEWSEAWNKRATVYFLMSQFTDSLSDIDRV

>  <experimental_endpoint>
soluble fraction (log2)

>  <recorded_measurement>
-0.17

$$$$
>  <seq_text>
HMTNVYSLIGKRGIVVEDIDWQKGTGQVKIDGELWSVKTNEQINISKGTEVEVENIEGVKVFVKPI

>  <experimental_endpoint>
soluble fraction (log2)

>  <recorded_measurement>
-0.458

$$$$
>  <seq_text>
HMEPDEQAVKALIAEIDKLSKEKLTLKHEKKLKELREIYDDFTEEEKKLVTNYDILVKMEKRMEVLKKQEG

>  <experimental_endpoint>
soluble fraction (log2)

>  <recorded_measurement>
0.19

$$$$

Entry HMNQNAMIGAHIRNLRLAKKLTLKQLSDESGLSVGFLSQLERGMSSIAIDTLARLAHILGADLSSFF has what soluble fraction (log2)?
-0.214

----------
- assay_text: soluble fraction after stress (log2 fold change); higher = more stays soluble; pooled small domains, quantitative proteomics
- experimental_conditions: stress: pH 4
What soluble fraction (log2) was measured for each of the following?
Give bare numbers.

Quick batch: soluble fraction (log2) for everything below.
1. HMDTYDSIDSILEERHLSRRKLAQAIGLPPSTFQSMMSRKSGMTLEVLMKIVSYLQVSPDAFW
2. HMKNIRKQAIEAIDRIKNGNPIVISKNAKLIFKNIAKEANVSPTELHREFRDVMLYVNSLKAP

0.061
0.271

Here are 2 sequences. What values of soluble fraction (log2) were reported for them?
1. HMRRSSQQLTLTEVSTIKEMVTSEEYRHVPTGTLALLAQRLRKVFASSSTWYRLVRIYKWRRPRGRIH
2. HMEVVVPDFEKIYIRDLDKFVEGHNVRYEIVDSIYNLEKDKGTVVDQDPEPGSKVKHGRVIYLTVNAML

[0.296, -0.678]

----------
- assay_text: soluble fraction after stress (log2 fold change); higher = more stays soluble; pooled small domains, quantitative proteomics
- experimental_conditions: stress: pH 4
Kindly state soluble fraction (log2) for each of the entries shown.
Numbers only.

Below is a list of sequences. For each, state its recorded soluble fraction (log2).
1. HMKSIRIPFILTEGPNSQKITIDIDSDEEFRIGDVFDEDDKLWSINQILISGDRKAKMAIASEVTSISALR
2. HMQVTDTGTIEGEIDKVLAANPDRVTEYHDGKEKILGWFVGQVMQTTKGKANPQMVNQLFLEKLK
3. HMSQITEADYIPNTDKTWGELMEETGESLPNLVERYNNEMTKSNGKEQPQSIIQRIIEDYQMVS
4. HMGEPQAWNELIGNLLRQWEARQTGWTPARKREALDRVLGAADPAALYTRLQGLLKSWTQAMTDADA
5. HMFFMTMGEKIQLLRKKQNWSQETLAEKLSVSRQAVSLWERDESQPELDKLLKLAKIFSVTTDYLIDDSVT
6. HMKYGPSTVATLKVARLGEMGAFLDAETGDTSDDILLHKTQQTAPVKVGDEVEVFLYLDPKRRLTASMRV
7. HMREISSDELHSLFSADQRGDLVINETTRLSIEKLYALHTPEEREAKVNELSGVLPSEAHRQLVHFLDYFD
8. HMKLRYRTQEELLGVAREYRRRGLPLSVIVIDFYHWTKFGDWKFDPAYWPDPVGMVRELRDMGVEAAV

-0.797
-0.00465
-0.0864
-0.956
-0.0472
-1.07
-1.54
0.22
